Would you kindly list Solubility (PGMEA) for each of these molecules?
- assayName: Solubility in PGMEA
- Assay type: physicochemical
- measurementSetup: concentration when PGMEA was added dropwise to 0.1 g of the compound under stirring and was dissolved completely

Some entries whose results are on file:
INSERT INTO measurements (molecule, quantitymeasured, observed) VALUES
  ('CCN(CC)c1ccc(/C=C(\C#N)C(=O)NCCCCCCNC(=O)/C(C#N)=C/c2ccc(N(CC)CC)cc2)cc1', 'Solubility (PGMEA)', '0.2 wt %'),
  ('CCN(CC)c1ccc(/C=C(\C#N)C(=O)Oc2ccc(-c3nc(-c4ccc(OC(=O)/C(C#N)=C/c5ccc(N(CC)CC)cc5)cc4)nc(-c4ccc(OC(=O)/C(C#N)=C/c5ccc(N(CC)CC)cc5)cc4)n3)cc2)cc1', 'Solubility (PGMEA)', '1.0 or less wt %');

Could you now look at the following molecule, please?
Could you tell me which Solubility (PGMEA) is on file for CC(COC(=O)/C(C#N)=C/c1ccc(N(C)C)cc1)OC(=O)/C(C#N)=C/c1ccc(N(C)C)cc1 (stereo not drawn) ?
1.0 or less wt %
